Recorded below: pIC50, system aromatase (Homo sapiens).
Remember the convention: pIC50 equals -log10 of concentration in molar.

Below: 2 compounds and their reported pIC50.
c1cc2nnn(OCC3CC3)c2cc1C1CCCc2cncn21 (stereo not drawn) [Compound 8, mononitrate]	7.50
CCCCn1nnc2ccc(C3CCCc4cncn43)cc21 (stereo not drawn) [Compound 24]	7.50

Query for aromatase (Homo sapiens): what pIC50 does the record show for N#Cc1ccc(COn2nnc3ccc(C4CCCc5cncn54)cc32)cc1 (stereo not drawn) [Compound 2] ? 7.35
